Recorded pEC50 by entry
- Tested on: Influenza type A (strain A/PR/8/34, ATCC VR-95)
- assay_remarks: Influenza antiviral assay: inhibition of virus-induced cytopathic effects (CPE) in MDCK cells, XTT dye reduction
- Type: cell-based
- assay_setup: Influenza A (H1N1) replication in MDCK cells, CPE reduction by XTT at 4 days post-infection; read-out: Influenza H1N1 affinity, EC50
pEC50: −log10 of the molar value.

| compound | assay_metric | recorded_value |
| --- | --- | --- |
| O=C(NCC1c2ccccc2COc2ccccc21)c1c(O)c(=O)ccn1CC1c2ccccc2COc2ccccc21 (centres unmarked) [Compound 107] | pEC50 | < 4.00 |

The record that follows has no pEC50 shown yet.
Ask: Which measured pEC50 value corresponds to O=C(NCC1c2ccccc2COc2ccccc21)c1c(O)c(=O)ccn1CC1c2ccccc2COc2ccccc21 (centres unmarked) [Compound 106] ?
Reply: < 4.00

====

- System: Influenza type A (strain A/PR/8/34, ATCC VR-95)
- assay_remarks: Influenza antiviral assay: inhibition of virus-induced cytopathic effects (CPE) in MDCK cells, XTT dye reduction
- Type: cell-based
- assay_setup: Influenza A virus, H1N1 / PR/8, MDCK, 96 h, Influenza A (H1N1) replication in MDCK cells, CPE reduction by XTT at 4 days post-infection; read-out: Influenza H1N1 affinity, EC50
pEC50: −log10 of the molar value.
assay_metric: pEC50

Ask: Which measured pEC50 value corresponds to O=C(Nc1ccc(O)cc1)c1c(O)c(=O)ccn1NC1c2ccccc2COc2ccccc21 (centres unmarked) ?
Reply: < 4.00

====

Recorded pEC50 by entry
- Tested on: Influenza type A (strain A/PR/8/34, ATCC VR-95)
- assay_remarks: Influenza antiviral assay: inhibition of virus-induced cytopathic effects (CPE) in MDCK cells, XTT dye reduction
- Format: cell-based
- assay_setup: Influenza A virus, H1N1 / PR/8, MDCK, 96 h, Influenza A (H1N1) replication in MDCK cells, CPE reduction by XTT at 4 days post-infection; read-out: Influenza H1N1 affinity, EC50
pEC50: −log10 of the molar value.

| molecule | assay_metric | recorded_value |
| --- | --- | --- |
| CN(C)C(=O)c1c(O)c(=O)ccn1NC1c2ccccc2COc2ccccc21 (centres unmarked) [Compound 5] | pEC50 | < 4.00 |

Ask: Which measured pEC50 value corresponds to O=C(Nc1ccccc1)c1c(O)c(=O)ccn1CC1c2ccccc2COc2ccccc21 (centres unmarked) [Compound 49] ?
Reply: < 4.00

Ask: Which measured pEC50 value corresponds to O=C(NCc1cccc(-c2ccccc2)c1)c1c(O)c(=O)ccn1NC1c2ccccc2COc2ccccc21 (centres unmarked) [Compound 33] ?
Reply: < 4.00

Ask: Which measured pEC50 value corresponds to CNC(=O)c1c(O)c(=O)ccn1CC1c2ccccc2COc2ccccc21 (centres unmarked) [Compound 52] ?
Reply: < 4.00

====

- Tested on: Influenza type A (strain A/PR/8/34, ATCC VR-95)
- assay_remarks: Influenza antiviral assay: inhibition of virus-induced cytopathic effects (CPE) in MDCK cells, XTT dye reduction
- Format: cell-based
- assay_setup: Influenza A virus, H1N1 / PR/8, MDCK, 96 h, Influenza A (H1N1) replication in MDCK cells, CPE reduction by XTT at 4 days post-infection; read-out: Influenza H1N1 affinity, EC50
pEC50: −log10 of the molar value.
assay_metric: pEC50

// below: answered compounds
| compound | tested_on | pEC50 |
| --- | --- | --- |
| O=C(NCc1cccc(C(F)(F)F)c1)c1c(O)c(=O)ccn1NC1c2ccccc2COc2ccccc21 (stereo not drawn) [Compound 37] | Influenza type A (strain A/PR/8/34, ATCC VR-95) | < 4.00 |
| CNC(=O)c1c(O)c(=O)ccn1NC1CCN(C)c2ccccc21 (stereo not drawn) [Compound 45] | Influenza type A (strain A/PR/8/34, ATCC VR-95) | < 4.00 |
| CNC(=O)c1c(O)c(=O)ccn1N(C)C1c2ccccc2COc2ccccc21 (stereo not drawn) [Compound 25] | Influenza type A (strain A/PR/8/34, ATCC VR-95) | < 4.00 |
| O=C(Nc1ccccc1)c1c(O)c(=O)ccn1NC1c2ccccc2COc2ccccc21 (stereo not drawn) [Compound 11] | Influenza type A (strain A/PR/8/34, ATCC VR-95) | < 4.00 |
| O=C(O)c1c(O)c(=O)ccn1NC(c1ccccc1)c1ccccc1 [Compound 67] | Influenza type A (strain A/PR/8/34, ATCC VR-95) | < 4.00 |

Ask: Any idea what pEC50 came out for O=C(O)c1c(O)c(=O)ccn1NC1CCCOc2ccccc21 (stereo not drawn) [Compound 1] on Influenza type A (strain A/PR/8/34, ATCC VR-95)?
Reply: 4.00 to 5.00

Ask: Any idea what pEC50 came out for O=C(O)c1c(O)c(=O)ccn1NC1c2ccccc2CSc2cc(Cl)c(Cl)cc21 (stereo not drawn) [Compound 77] on Influenza type A (strain A/PR/8/34, ATCC VR-95)?
Reply: 4.00 to 5.00

Ask: Any idea what pEC50 came out for O=C(O)c1c(O)c(=O)ccn1NC1c2ccccc2CSc2c1ccc(Cl)c2Cl (stereo not drawn) [Compound 87] on Influenza type A (strain A/PR/8/34, ATCC VR-95)?
Reply: 5.00 to 6.00

Ask: Any idea what pEC50 came out for O=C(O)c1c(O)c(=O)ccn1NC1c2ccc(F)c(F)c2CSc2c(-c3ccc(F)cc3)cccc21 (stereo not drawn) [Compound 122] on Influenza type A (strain A/PR/8/34, ATCC VR-95)?
Reply: < 4.00

====

- Test system: Influenza type A (strain A/PR/8/34, ATCC VR-95)
- assay_remarks: Influenza antiviral assay: inhibition of virus-induced cytopathic effects (CPE) in MDCK cells, XTT dye reduction
- Type: cell-based
- assay_setup: Influenza A virus, H1N1 / PR/8, MDCK, 96 h, Influenza A (H1N1) replication in MDCK cells, CPE reduction by XTT at 4 days post-infection; read-out: Influenza H1N1 affinity, EC50
pEC50: −log10 of the molar value.
Recorded pEC50 by entry

| molecule | tested_on | recorded_value |
| --- | --- | --- |
| O=C(NCC(F)(F)F)c1c(O)c(=O)ccn1NC1c2ccccc2SCc2c1ccc(F)c2F (centres unmarked) | Influenza type A (strain A/PR/8/34, ATCC VR-95) | 5.00 to 6.00 |
| CNC(=O)c1c(O)c(=O)ccn1NC(c1ccccc1)c1ccccc1 | Influenza type A (strain A/PR/8/34, ATCC VR-95) | < 4.00 |
| O=C(O)c1c(O)c(=O)ccn1CC1c2ccccc2SCc2c1ccc(F)c2F (centres unmarked) | Influenza type A (strain A/PR/8/34, ATCC VR-95) | < 4.00 |
| CNC(=O)c1c(O)c(=O)ccn1N(Cc1ccccc1)C1c2ccccc2COc2ccccc21 (centres unmarked) | Influenza type A (strain A/PR/8/34, ATCC VR-95) | < 4.00 |
| O=C(O)c1c(O)c(=O)ccn1NC1c2ccccc2SCc2c1ccc(F)c2F (centres unmarked) | Influenza type A (strain A/PR/8/34, ATCC VR-95) | 5.00 to 6.00 |
| O=C(O)c1c(O)c(=O)ccn1NC1c2ccccc2CSc2cc(F)c(F)cc21 (centres unmarked) | Influenza type A (strain A/PR/8/34, ATCC VR-95) | 4.00 to 5.00 |

Ask: Which measured pEC50 value corresponds to CN(C1c2ccccc2COc2ccccc21)n1ccc(=O)c(O)c1C(=O)Nc1ccccc1 (centres unmarked) ?
Reply: < 4.00

Ask: Which measured pEC50 value corresponds to CNC(=O)c1c(O)c(=O)ccn1NC1CCOCc2ccccc21 (centres unmarked) ?
Reply: < 4.00

Ask: Which measured pEC50 value corresponds to O=C(NCCOCCO)c1c(O)c(=O)ccn1NC1CCCNc2ccccc21 (centres unmarked) ?
Reply: < 4.00

Ask: Which measured pEC50 value corresponds to O=C(O)c1c(O)c(=O)ccn1NC1c2ccc(C(F)(F)F)cc2COc2cc(C(F)(F)F)ccc21 (centres unmarked) ?
Reply: < 4.00

Ask: Which measured pEC50 value corresponds to O=C(Nc1cccc(-c2ccccc2)c1)c1c(O)c(=O)ccn1NC1c2ccccc2COc2ccccc21 (centres unmarked) ?
Reply: < 4.00

Ask: Which measured pEC50 value corresponds to O=C(O)c1c(O)c(=O)ccn1NC1c2ccccc2OCc2c1ccc(Cl)c2Cl (centres unmarked) ?
Reply: 5.00 to 6.00

Ask: Which measured pEC50 value corresponds to O=C(O)c1c(O)c(=O)ccn1NC1c2ccccc2COc2ccccc21 (centres unmarked) ?
Reply: 4.00 to 5.00

Ask: Which measured pEC50 value corresponds to O=C(O)c1c(O)c(=O)ccn1NC1c2cc(Cl)ccc2COc2ccc(Cl)cc21 (centres unmarked) ?
Reply: 4.00 to 5.00

Ask: Which measured pEC50 value corresponds to CN(Cc1ccccc1)C(=O)c1c(O)c(=O)ccn1NC1c2ccccc2COc2ccccc21 (centres unmarked) ?
Reply: 5.00 to 6.00

Ask: Which measured pEC50 value corresponds to CNC(=O)c1c(O)c(=O)ccn1NC1c2ccccc2SCc2c1ccc(F)c2F (centres unmarked) ?
Reply: < 4.00

Ask: Which measured pEC50 value corresponds to O=C(O)c1c(O)c(=O)ccn1NC1c2ccc(F)c(F)c2CSc2c(-c3ccccc3)cccc21 (centres unmarked) ?
Reply: < 4.00

src = patent US12565488B2
